Biological target: T1, human IL-33 (R&D Systems, #3625-IL-010/CF) (human, UniProt O95760 112-270)
T1 construct: Commercial recombinant protein; also called hIL-33; interleukin-33
T1 sequence (looked up): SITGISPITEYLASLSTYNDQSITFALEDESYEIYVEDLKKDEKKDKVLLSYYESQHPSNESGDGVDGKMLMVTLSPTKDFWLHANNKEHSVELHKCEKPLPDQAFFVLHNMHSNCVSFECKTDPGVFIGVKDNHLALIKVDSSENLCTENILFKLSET
Assay: SPR 25C pH7.4, mAb captured
Method: Equilibrium dissociation constants (KD values) for IL-33 binding to purified anti-IL-33 monoclonal antibodies were determined using a real-time surface plasmon resonance biosensor using a Biacore 4000 instrument. […] Association of either hIL-33 or MfIL-33-6His to the captured monoclonal antibody was monitored for 4 minutes and their dissociation in ABS-ET running buffer was monitored for 10 minutes. […]
parameter: Kd (nM)
Output spec: scalar in nM, unitless text.

// query Reported Kd for H4H9659P (antibody, human IgG4, V domains shown, Human IgG4 Fc (H4H)) VH: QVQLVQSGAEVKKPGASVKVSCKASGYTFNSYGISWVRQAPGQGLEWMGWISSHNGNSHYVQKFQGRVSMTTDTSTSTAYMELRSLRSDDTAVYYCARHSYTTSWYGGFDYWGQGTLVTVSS VL: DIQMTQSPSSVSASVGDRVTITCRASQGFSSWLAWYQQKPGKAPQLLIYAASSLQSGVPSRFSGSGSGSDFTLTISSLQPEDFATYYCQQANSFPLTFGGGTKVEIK : what is it?
// result 0.327

// query Please give the result for H4H9675P (antibody, human IgG4, V domains shown, Human IgG4 Fc (H4H)) VH: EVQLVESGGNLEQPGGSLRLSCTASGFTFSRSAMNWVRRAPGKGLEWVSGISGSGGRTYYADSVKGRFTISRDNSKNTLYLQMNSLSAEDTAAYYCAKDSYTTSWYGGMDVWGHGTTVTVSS VL: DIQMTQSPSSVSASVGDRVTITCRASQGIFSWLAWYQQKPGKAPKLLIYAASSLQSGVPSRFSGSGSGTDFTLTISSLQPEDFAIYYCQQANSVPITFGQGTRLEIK too.
// result 0.254

The origin of these recorded values is patent US20160362487A1.
